Test system: HEK-293T
PROCEDURE_DETAILS: Multiplex assay against HEK293T
Assay type: toxicity, cell-based
TEST_CONDITIONS: human, 48 h, 10 µM, compound concentration 10 uM, replicate 1
Population Hoechst High Intensity Objects (%) below 6% gives rule not met; Population Hoechst High Intensity Objects (%) at or above it gives rule met.

>>> class_name("O=C(CCCc1ccccc1)Nc1nc2ccccc2c(=O)s1")
"rule not met"
>>> class_name("CCc1cc2cc(NS(=O)(=O)c3ccc(C#N)cc3)ccc2n(CC)c1=O")
"rule not met"
>>> class_name("COC[C@@H](c1ccc(C(F)(F)F)cc1)N1CCN(C2(C)CCN(C(=O)c3c(C)ncnc3C)CC2)C[C@@H]1C.O=C(O)/C=C\\C(=O)O [VICRIVIROC MALEATE]")
"rule not met"
>>> class_name("Cc1onc(-c2ccccc2Cl)c1C(=O)N(C)c1ccc(Cl)cc1")
"rule not met"
>>> class_name("N#Cc1c(Oc2cccc(OS(=O)(=O)CCCC(F)(F)F)c2)cccc1C(F)(F)F")
"rule not met"
>>> class_name("CC(C)COc1ccc(CNC(=O)N(Cc2ccc(F)cc2)C2CCN(C)CC2)cc1")
"rule met"

---

Test system: Fibroblast
PROCEDURE_DETAILS: Multiplex assay against human fibroblast
Format: toxicity, cell-based
TEST_CONDITIONS: 48 h, 10 µM, compound concentration 10 uM, replicate 1
Let's look at some compounds and their measured Population Mitotic Cells (%).
EXPERIMENTAL_ENDPOINT: Population Mitotic Cells (%)

>>> value("CCCOc1ccc2[nH]cc(C3=CCNCC3)c2n1.Cl")
26
>>> value("CN[C@@H](C)C(=O)N[C@H](C(=O)N1CCC[C@H]1C(=O)Nc1snnc1-c1ccccc1)C1CCCCC1")
23
>>> value("O=C1[C@H](Cc2ccc(O)cc2)N2C(=O)CCN(C(=O)NCc3ccccc3)[C@H]2CN1Cc1cccc2ccccc12")
14
>>> value("Cl.N=C(N)NC(=O)Cc1c(Cl)cccc1Cl [GUANFACINE HYDROCHLORIDE]")
33
>>> value("Cc1noc(-c2ccc(-c3ccc(CC(=O)O)cc3)cc2)c1NC(=O)O[C@H](C)c1ccccc1Cl")
76
>>> value("CCc1cc2cc(NS(=O)(=O)c3ccc(C#N)cc3)ccc2n(CC)c1=O")
40
>>> value("CC(=O)Nc1cccc2c1c(Sc1ccc(Cl)cc1)c(C)n2CC(=O)O")
35
>>> value("Cc1sc2c(c1C)C(c1ccc(Cl)cc1)=N[C@@H](CC(=O)NCCCCCCCCNC(=O)COc1cccc3c1C(=O)N(C1CCC(=O)NC1=O)C3=O)c1nnc(C)n1-2 (stereo partly drawn)")
13
>>> value("C[C@H](N)COC(=O)[C@@H](CCCCN)NC(=O)Cc1c(-c2ccc3ccccc3c2)[nH]c2c1ccc1ccccc12")
53
>>> value("COc1ccccc1N1CCN(C[C@@H](C(=O)NC(C)(C)C)c2ccccc2)CC1.Cl.Cl")
15
>>> value("NCCc1cn(S(=O)(=O)c2c(Cl)nc3sccn23)c2ccccc12.O=C(O)C(=O)O")
14
>>> value("CC(C)COc1ccc(CNC(=O)N(Cc2ccc(F)cc2)C2CCN(C)CC2)cc1")
8
>>> value("COc1cccc2c1c(NS(=O)(=O)c1ccc(Cl)s1)nn2Cc1cccc(CNC(=O)C(C)(C)O)c1")
36
>>> value("Cc1cccc(NC(=O)CN2CCC(c3ccccn3)CC2)c1.Cl.Cl")
23
>>> value("CC(/C=C1\\SC(=S)N(CCCC(=O)Nc2ccc(C(=O)O)c(O)c2)C1=O)=C\\c1ccccc1")
53
>>> value("Cc1onc(-c2ccccc2Cl)c1C(=O)N(C)c1ccc(Cl)cc1")
55
>>> value("O=C(CCCc1ccccc1)Nc1nc2ccccc2c(=O)s1")
41
>>> value("CCCCC1=NC2(CCCC2)C(=O)N1Cc1ccc(-c2ccccc2-c2nnn[nH]2)cc1")
38
